# target of assay: human ECE-1 (Homo sapiens)
# Sequence (P42892 whole entry): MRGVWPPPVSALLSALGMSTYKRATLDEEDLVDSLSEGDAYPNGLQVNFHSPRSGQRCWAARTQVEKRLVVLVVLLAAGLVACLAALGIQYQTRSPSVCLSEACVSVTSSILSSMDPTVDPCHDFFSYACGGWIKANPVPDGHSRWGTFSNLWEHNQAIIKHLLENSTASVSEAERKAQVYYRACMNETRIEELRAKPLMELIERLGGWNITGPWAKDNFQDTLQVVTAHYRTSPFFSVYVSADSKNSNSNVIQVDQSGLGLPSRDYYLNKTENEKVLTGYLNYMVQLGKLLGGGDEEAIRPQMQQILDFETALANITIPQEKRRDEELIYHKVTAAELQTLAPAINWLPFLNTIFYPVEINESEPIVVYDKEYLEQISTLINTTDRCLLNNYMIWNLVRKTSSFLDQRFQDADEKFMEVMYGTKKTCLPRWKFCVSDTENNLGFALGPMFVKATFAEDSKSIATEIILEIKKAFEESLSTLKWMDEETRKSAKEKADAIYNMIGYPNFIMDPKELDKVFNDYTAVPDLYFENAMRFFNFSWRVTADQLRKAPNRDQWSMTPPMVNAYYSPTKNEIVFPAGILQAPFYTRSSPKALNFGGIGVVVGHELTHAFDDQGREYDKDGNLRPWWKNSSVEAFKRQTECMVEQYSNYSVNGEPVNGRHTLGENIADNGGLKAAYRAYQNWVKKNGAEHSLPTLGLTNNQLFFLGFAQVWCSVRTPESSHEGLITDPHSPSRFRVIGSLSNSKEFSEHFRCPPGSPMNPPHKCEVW
observed property: IC50 (µM)
A number alone suffices; assume µM.

Item CCCCCCCc1nc(-c2nc(C(=O)O)cc(OC)c2OC)cs1 was tested on human ECE-1 (Homo sapiens); the reported IC50 is 1.3
